- Experimental System: P. falciparum apicoplast DNA polymerase (Pf-apPOL) (Plasmodium falciparum, UniProt Q8ILY1)
- Sequence (Q8ILY1 entry or part of it): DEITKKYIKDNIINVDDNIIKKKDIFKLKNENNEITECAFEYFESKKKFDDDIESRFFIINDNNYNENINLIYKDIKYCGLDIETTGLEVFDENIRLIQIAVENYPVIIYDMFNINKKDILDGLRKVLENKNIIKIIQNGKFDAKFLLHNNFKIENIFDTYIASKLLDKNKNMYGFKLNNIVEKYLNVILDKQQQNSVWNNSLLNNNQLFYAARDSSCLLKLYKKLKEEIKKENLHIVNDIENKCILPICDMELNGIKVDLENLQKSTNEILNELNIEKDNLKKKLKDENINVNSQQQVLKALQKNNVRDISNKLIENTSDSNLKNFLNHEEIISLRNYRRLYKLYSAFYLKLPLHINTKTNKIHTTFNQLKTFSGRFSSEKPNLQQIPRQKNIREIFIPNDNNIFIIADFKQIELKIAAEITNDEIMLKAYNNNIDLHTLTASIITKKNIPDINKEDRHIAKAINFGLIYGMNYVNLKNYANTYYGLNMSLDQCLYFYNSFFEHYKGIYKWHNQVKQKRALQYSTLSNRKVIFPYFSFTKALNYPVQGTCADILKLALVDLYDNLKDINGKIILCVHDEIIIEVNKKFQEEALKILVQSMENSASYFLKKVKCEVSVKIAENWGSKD
- Assay Procedure: Fluorescence-based high-throughput DNA polymerase assay (molecular beacon), primary screen and dose-response;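 further: test concentration in µM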
- Format: biochemical
- Conditions Used: DRC-1; concentration 20; 180'
- Text: The HT assay employs a molecular beacon, a stem-loop DNA template with a Cy3 dye and the Black Hole Quencher on the 3′ and 5′ ends of the DNA, respectively. Pf-apPOL concentration is based on a calculated absorptivity of ε280 = 56750 M^−1 cm^−1. […] To identify apPOL inhibitors we utilised our previously developed high-throughput DNA polymerase assay. […] The assay accurately recapitulates the kinetic behaviour of apPOL, as measured through more conventional low-throughput gel-based assays. […]
Quantity: % inhibition apPOL 180'

QUERY: Output measured % inhibition apPOL 180' for this item: O=C(O)c1cc([N+](=O)[O-])c(N2CCN(c3cccc(C(F)(F)F)c3)CC2)c([N+](=O)[O-])c1
RESULT: 35.8091%

QUERY: Output measured % inhibition apPOL 180' for this item: CCCCCc1c2c(cc(O)c1C(=O)O)OC(=O)c1c(cc(OC)cc1C(=O)CCCC)O2
RESULT: 74.6955%

QUERY: Output measured % inhibition apPOL 180' for this item: Cc1ccnc(NS(=O)(=O)c2ccc(-n3cccc3)cc2)n1
RESULT: 29.9217%

QUERY: Output measured % inhibition apPOL 180' for this item: COc1ccc(C=C2Oc3c(ccc4c3CN(Cc3ccco3)CO4)C2=O)c(OC)c1
RESULT: 69.9557%

QUERY: Output measured % inhibition apPOL 180' for this item: CCCN1COc2ccc3c(=O)c(-c4ccccc4)coc3c2C1
RESULT: 58.6511%

QUERY: Output measured % inhibition apPOL 180' for this item: CCOc1ccc2cc(C3=NN(C(=O)CCC(=O)O)C(c4ccc(C)cc4)C3)c(=O)[nH]c2c1 (stereo not drawn)
RESULT: 8.488%

QUERY: Output measured % inhibition apPOL 180' for this item: O=[N+]([O-])c1ccc(SCc2ccco2)c2cccnc12
RESULT: 26.1748%

QUERY: Output measured % inhibition apPOL 180' for this item: O=C(O)c1nc(-c2ccccc2)nc2c1OCO2
RESULT: 26.9983%

QUERY: Output measured % inhibition apPOL 180' for this item: O=C(Nc1c2c(nn1-c1ccccc1)CSC2)c1ccco1
RESULT: 46.0885%

QUERY: Output measured % inhibition apPOL 180' for this item: Nc1ncnc(NC2CCCCC2)c1[N+](=O)[O-]
RESULT: 56.6751%

QUERY: Output measured % inhibition apPOL 180' for this item: O=C(Cc1cccs1)N1CCN(c2nc(CN3CCOCC3)cs2)CC1
RESULT: 53%

QUERY: Output measured % inhibition apPOL 180' for this item: COc1ccc(-c2occ(C(=O)O)c2C(=O)O)cc1
RESULT: 62.8921%

* * *

What % inhibition apPOL 180' was measured for each of the following?
- Experimental System: P. falciparum apicoplast DNA polymerase (Pf-apPOL) (Plasmodium falciparum, UniProt Q8ILY1)
- Assay Procedure: Fluorescence-based high-throughput DNA polymerase assay (molecular beacon), primary screen and dose-response;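 further: test concentration in µM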
- Assay type: biochemical
- Conditions Used: DRC-2; 180'; concentration 40
Write the number in % without appending the unit.

QUERY: Output measured % inhibition apPOL 180' for this item: COc1cccc(Oc2c(C(F)(F)F)oc3cc(OC(=O)N(C)C)ccc3c2=O)c1
RESULT: 45

QUERY: Output measured % inhibition apPOL 180' for this item: O=C1CCCC2=C1C(c1ccccn1)C1=C(CCCC1=O)O2
RESULT: 48

QUERY: Output measured % inhibition apPOL 180' for this item: CN(C)S(=O)(=O)Oc1ccc(-c2noc(-c3ccc(Oc4cc(Cl)cc(Cl)c4)o3)n2)cc1
RESULT: 65

QUERY: Output measured % inhibition apPOL 180' for this item: COCC(=O)Nc1c(-c2cccc(F)c2)nc2cc(C)ccn12
RESULT: 73

QUERY: Output measured % inhibition apPOL 180' for this item: O=[N+]([O-])/C=C/c1ccc(-c2ccc(Br)cc2)o1
RESULT: 62

QUERY: Output measured % inhibition apPOL 180' for this item: COc1ccc(-c2cc(=O)c3cc(O)ccc3o2)cc1OC
RESULT: 56

QUERY: Output measured % inhibition apPOL 180' for this item: Cc1ccc(-n2nnc(C(=O)O)c2-c2ccccn2)c(F)c1
RESULT: 51

QUERY: Output measured % inhibition apPOL 180' for this item: OC(C#Cc1ccccc1)c1ccco1 (centres unmarked)
RESULT: 71
